Target: LFA-1 binding to immobilized ICAM-1 (Homo sapiens, UniProt P05107+P20701)
Construct: made in house; host or cells: transfected 293 cells (LFA-1)
Sequence (P20701 26-1170): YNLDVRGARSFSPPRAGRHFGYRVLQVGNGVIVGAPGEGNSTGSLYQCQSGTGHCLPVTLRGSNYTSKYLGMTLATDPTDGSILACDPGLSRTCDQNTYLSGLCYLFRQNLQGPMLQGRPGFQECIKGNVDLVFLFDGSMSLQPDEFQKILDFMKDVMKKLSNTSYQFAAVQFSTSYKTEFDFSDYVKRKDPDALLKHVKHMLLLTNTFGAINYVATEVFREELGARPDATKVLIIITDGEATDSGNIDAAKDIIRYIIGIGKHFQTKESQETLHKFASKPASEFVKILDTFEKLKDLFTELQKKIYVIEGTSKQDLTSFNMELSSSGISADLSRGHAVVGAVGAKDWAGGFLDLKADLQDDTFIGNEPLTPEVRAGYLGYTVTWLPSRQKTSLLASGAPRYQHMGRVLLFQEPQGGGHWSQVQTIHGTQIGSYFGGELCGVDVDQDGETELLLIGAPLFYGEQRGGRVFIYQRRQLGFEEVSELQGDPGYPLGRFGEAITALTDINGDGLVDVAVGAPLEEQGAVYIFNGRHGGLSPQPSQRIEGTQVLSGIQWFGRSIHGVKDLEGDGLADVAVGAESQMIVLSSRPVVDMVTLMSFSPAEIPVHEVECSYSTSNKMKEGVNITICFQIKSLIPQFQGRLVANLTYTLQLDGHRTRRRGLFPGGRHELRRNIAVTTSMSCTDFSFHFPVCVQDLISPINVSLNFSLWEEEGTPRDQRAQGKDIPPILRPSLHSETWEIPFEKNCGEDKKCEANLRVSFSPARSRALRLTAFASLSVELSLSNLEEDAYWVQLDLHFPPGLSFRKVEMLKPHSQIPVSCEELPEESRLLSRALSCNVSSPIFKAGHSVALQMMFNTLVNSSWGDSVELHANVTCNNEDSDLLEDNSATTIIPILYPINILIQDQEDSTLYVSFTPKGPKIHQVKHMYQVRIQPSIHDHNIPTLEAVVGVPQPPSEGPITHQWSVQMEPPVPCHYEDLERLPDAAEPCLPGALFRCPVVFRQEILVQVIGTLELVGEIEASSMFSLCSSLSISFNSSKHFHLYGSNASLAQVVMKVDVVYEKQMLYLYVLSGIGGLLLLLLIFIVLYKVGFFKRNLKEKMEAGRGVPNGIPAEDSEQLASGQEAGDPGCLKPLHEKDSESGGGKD
Sequence (P05107 23-769): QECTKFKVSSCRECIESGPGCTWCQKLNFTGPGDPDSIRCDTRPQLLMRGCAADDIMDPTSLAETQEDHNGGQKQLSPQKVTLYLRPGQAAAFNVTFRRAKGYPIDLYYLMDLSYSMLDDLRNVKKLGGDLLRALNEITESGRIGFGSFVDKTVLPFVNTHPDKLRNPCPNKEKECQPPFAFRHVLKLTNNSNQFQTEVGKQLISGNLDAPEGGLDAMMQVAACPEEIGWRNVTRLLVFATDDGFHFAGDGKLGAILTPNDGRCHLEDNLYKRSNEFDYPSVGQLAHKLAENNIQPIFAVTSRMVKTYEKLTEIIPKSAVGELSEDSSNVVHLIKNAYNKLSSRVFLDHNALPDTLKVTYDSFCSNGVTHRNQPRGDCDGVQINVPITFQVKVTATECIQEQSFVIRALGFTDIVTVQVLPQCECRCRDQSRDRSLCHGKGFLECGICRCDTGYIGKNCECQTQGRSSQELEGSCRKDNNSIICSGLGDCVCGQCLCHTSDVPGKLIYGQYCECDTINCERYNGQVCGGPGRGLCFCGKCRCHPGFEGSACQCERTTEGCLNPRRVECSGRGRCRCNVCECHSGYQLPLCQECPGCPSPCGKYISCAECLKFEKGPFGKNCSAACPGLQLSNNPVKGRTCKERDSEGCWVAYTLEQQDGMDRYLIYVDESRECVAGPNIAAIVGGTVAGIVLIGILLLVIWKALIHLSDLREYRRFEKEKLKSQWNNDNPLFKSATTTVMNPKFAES
Test: LFA-1/ICAM-1 protein-protein assay (solid-phase ELISA)
Details: read-out: LFA-1/ICAM-1 Protein-Protein Assay IC50
Counter-ions that a name gives are not always drawn.
PARAMETER_MEASURED: IC50 (nM)

These solved cases illustrate the format of a correct answer.
MOLECULE	RESULT_UNIT	NUMERIC_READOUT
O=C(NCc1cccc(O)c1)c1ccc(C(=O)N[C@@H](CNC(=O)c2cc(F)cc(F)c2)C(=O)O)c(Cl)c1 [Example 252]	nM	0.9
N[C@H](Cc1c[nH]c2ccccc12)C(=O)NC[C@H](NC(=O)c1ccc(C(=O)NCc2cccc(O)c2)cc1Cl)C(=O)O [Example 276]	nM	6.9
CN(C)c1ccc(C(=O)NC[C@H](NC(=O)c2ccc(C(=O)NCc3cccc(O)c3)cc2Cl)C(=O)O)cc1 [Example 128]	nM	4.2
O=C(NCc1cccc(O)c1)c1ccc(C(=O)N[C@@H](CNC(=O)c2cccc(Cl)c2)C(=O)O)c(Cl)c1 [Example 123]	nM	0.8
CC(=O)NC[C@H](NC(=O)c1ccc(C(=O)NCc2cccc(O)c2)cc1Cl)C(=O)O [Example 193]	nM	0.7

a: N#Cc1cccc(C(=O)NC[C@H](NC(=O)c2ccc(C(=O)NCc3cccc(O)c3)cc2Cl)C(=O)O)c1 [Example 126]
b: O=C(NCc1cccc(O)c1)c1ccc(C(=O)N[C@@H](CNC(=O)c2cccc(F)c2)C(=O)O)c(Cl)c1 [Example 131]
Prompt: Hi there! Just curious which has the higher IC50 between a and b . Your choice should be expressed through its label.
Response: a

a: O=C(NCc1cccc(O)c1)c1ccc(C(=O)N[C@@H](CNC(=O)c2cnccn2)C(=O)O)c(Cl)c1 [Example 170]
b: CCCC[C@H](N)C(=O)NC[C@H](NC(=O)c1ccc(C(=O)NCc2cccc(O)c2)cc1Cl)C(=O)O [Example 278]
Prompt: // task: argmin of IC50 over [ a , b ] Your choice should be expressed through its label.
Response: a

I: COc1ccc(/C=C/C(=O)NC[C@H](NC(=O)c2ccc(C(=O)NCc3cccc(O)c3)cc2Cl)C(=O)O)cc1 [Example 114]
II: NC1(C(=O)NC[C@H](NC(=O)c2ccc(C(=O)NCc3cccc(O)c3)cc2Cl)C(=O)O)CCCCC1 [Example 284]
III: O=C(NCc1cccc(O)c1)c1ccc(C(=O)N[C@@H](CNC(=O)c2cccs2)C(=O)O)c(Cl)c1 [Example 305, sodium salt]
Prompt: Ascending by IC50, please. Please respond by ranking the labels in the order requested.
Response: III, I, II

a: C[C@@H](NC(=O)c1cc(Cl)c(C(=O)N[C@@H](CNC(=O)c2ccccc2)C(=O)O)c(Cl)c1)c1cccc2ccccc12 [Example 347]
b: O=C(NCc1cccc(O)c1)c1cc(Cl)c(C(=O)N[C@@H](CNC(=O)c2cc(F)cc(F)c2)C(=O)O)c(Cl)c1 [Example 344]
Prompt: // task: argmin of IC50 over [ a , b ] Your choice should be expressed through its label.
Response: b

====

Tested on: cell-surface Mac-1 adhesion to immobilized fibrinogen (HL-60 cells)
Test: Mac-1/Fibrinogen cell-based screening assay
Design: species or system human
Details: Homo sapiens, HL-60, HL-60 cells; read-out: Mac-1/Fgn Cell based Assay IC50
pIC50: −log10 of the molar value.
PARAMETER_MEASURED: pIC50

a: O=C(NCc1cccc(O)c1)c1cc(Cl)c(C(=O)N[C@@H](CNC(=O)c2ccc(Br)s2)C(=O)O)c(Cl)c1 [Example 354]
b: O=C(NCc1cccc(O)c1)c1ccc(C(=O)N[C@@H](CNC(=O)c2ccc(Br)s2)C(=O)O)c(Cl)c1 [Example 155]
c: O=C(NCc1cccc(O)c1)c1ccc(C(=O)N[C@@H](CNC(=O)c2cccc(C(F)(F)F)c2)C(=O)O)c(Cl)c1 [Example 146]
Prompt: Order them by pIC50, ascending: the molecules above. Please respond by ranking the labels in the order requested.
Response: c, b, a

====

Target: LFA-1 binding to immobilized ICAM-1 (Homo sapiens, UniProt P05107+P20701)
Construct: made in house; host or cells: transfected 293 cells (LFA-1)
Assay: LFA-1/ICAM-1 protein-protein assay (solid-phase ELISA)
Settings: read-out: LFA-1/ICAM-1 Protein-Protein Assay IC50
Description: (a) LFA-1/ICAM-1 screening test: LFA-1/ICAM-1 antagonist activity, defined as the ability of compounds of the invention to block LFA-1 binding to immobilized ICAM-1, was quantitated using a solid-phase ELISA. Typically, fusion protein consisting of the entire extracellular domain of human ICAM-1 and the Fc domain of human IgG (5dICAM-Ig) was coated onto 96-well microtiter plates (0.15 μg in 100 μL PBS) overnight at 4° C. […] The plates were then read at 450 nm. […]
PARAMETER_MEASURED: IC50 (nM)

These solved cases illustrate the format of a correct answer.
MOLECULE	PARAMETER_MEASURED	RESULT_UNIT	NUMERIC_READOUT
O=C(NC[C@H](NC(=O)c1ccc(CNC(=O)c2ccccc2O)cc1Cl)C(=O)O)c1ccccc1 [Example 365]	IC50	nM	18
C/C=C/C(=O)NC[C@H](NC(=O)c1ccc(C(=O)NCc2cccc(O)c2)cc1Cl)C(=O)O [Example 113]	IC50	nM	1.7
Nc1cccc(CNC(=O)c2ccc(C(=O)N[C@@H](CNC(=O)c3cccs3)C(=O)O)c(Br)c2)c1 [Example 334]	IC50	nM	3
O=C(NCc1cccc(O)c1)c1ccc(C(=O)N[C@@H](CNC(=O)c2cc(Br)c(Br)s2)C(=O)O)c(Cl)c1 [Example 158]	IC50	nM	7.5
N[C@@H](COCc1ccccc1)C(=O)NC[C@H](NC(=O)c1ccc(C(=O)NCc2cccc(O)c2)cc1Cl)C(=O)O [Example 293]	IC50	nM	6.3

P: O=C(/C=C/c1cccnc1)NC[C@H](NC(=O)c1ccc(C(=O)NCc2cccc(O)c2)cc1Cl)C(=O)O [Example 115]
Q: O=C(NCc1cccc(O)c1)c1ccc(C(=O)N[C@@H](CNC(=O)c2cc3ccccc3oc2=O)C(=O)O)c(Cl)c1 [Example 188]
R: O=C(NCc1cccc(O)c1)c1ccc(C(=O)N[C@@H](CNC(=O)c2cc(=O)c3ccccc3o2)C(=O)O)c(Cl)c1 [Example 187]
Prompt: Ascending by IC50, please. Please respond by ranking the labels in the order requested.
Response: P, Q, R
(P: 2.2 nM, Q: 3.4 nM, R: 12 nM)

====

Target: ICAM-1 binding to immobilized Mac-1 (Homo sapiens, UniProt P05107+P11215)
Construct: made in house; host or cells: transfected 293 cells (Mac-1)
Assay: Mac-1/ICAM-1 screening assay (solid-phase ELISA)
Settings: read-out: Mac-1/ICAM-1 Protein-Protein Assay IC50
PARAMETER_MEASURED: IC50 (nM)

These solved cases illustrate the format of a correct answer.
NC1(C(=O)NC[C@H](NC(=O)c2ccc(C(=O)NCc3cccc(O)c3)cc2Cl)C(=O)O)CCCC1 27
O=C(CCc1ccccc1)NC[C@H](NC(=O)c1ccc(C(=O)NCc2cccc(O)c2)cc1Cl)C(=O)O 42
O=C(NC[C@H](NC(=O)c1ccc(CNC(=O)c2ccccc2O)cc1Cl)C(=O)O)c1ccccc1 208
CCCCCOc1ccc(C(=O)NC[C@H](NC(=O)c2ccc(C(=O)NCc3cccc(O)c3)cc2Cl)C(=O)O)cc1 62
O=C(NCc1cccc(O)c1)c1ccc(C(=O)N[C@@H](CNC(=O)c2cc3ccccc3s2)C(=O)O)c(Cl)c1 23

I: O=C(NC[C@H](NC(=O)c1c(F)cccc1Cl)C(=O)O)c1ccccc1
II: O=C(CSc1ncccn1)NC[C@H](NC(=O)c1ccc(C(=O)NCc2cccc(O)c2)cc1Cl)C(=O)O
Prompt: // task: argmin of IC50 over [ I , II ] Your choice should be expressed through its label.
Response: II

====

Biological target: LFA-1 binding to immobilized ICAM-1 (Homo sapiens, UniProt P05107+P20701)
Construct: made in house; host or cells: transfected 293 cells (LFA-1)
Assay: LFA-1/ICAM-1 protein-protein assay (solid-phase ELISA)
Conditions: read-out: LFA-1/ICAM-1 Protein-Protein Assay IC50
pIC50: −log10 of the molar value.
PARAMETER_MEASURED: pIC50

These solved cases illustrate the format of a correct answer.
COMPOUND	pIC50
O=C(NCc1cccc(O)c1)c1ccc(C(=O)N[C@@H](CNS(=O)(=O)c2ccccc2)C(=O)O)c(Cl)c1 [Example 360]	8.28
NC(=O)C[C@H](N)C(=O)NC[C@H](NC(=O)c1ccc(C(=O)NCc2cccc(O)c2)cc1Cl)C(=O)O [Example 200]	8.54
Cc1ccsc1C(=O)NC[C@H](NC(=O)c1c(Cl)cc(C(=O)NCc2cccc(O)c2)cc1Cl)C(=O)O [Example 357]	9.30
O=C(NCc1cccc(O)c1)c1ccc(C(=O)N[C@@H](CNC(=O)c2c3c(nc4ccccc24)CCCC3)C(=O)O)c(Cl)c1 [Example 190]	7.89
O=C(NCc1cccc(O)c1)c1ccc(C(=O)N[C@@H](CNC(=O)[C@@H]2C[C@@H](O)CN2)C(=O)O)c(Cl)c1 [Example 268]	8.77

1: O=C(CSc1ncccn1)NC[C@H](NC(=O)c1ccc(C(=O)NCc2cccc(O)c2)cc1Cl)C(=O)O [Example 91]
2: Nc1cccc(C(=O)NC[C@H](NC(=O)c2ccc(C(=O)NCc3cccc(O)c3)cc2Cl)C(=O)O)c1 [Example 118]
Prompt: Hi there! Just curious which has the higher pIC50 between 1 and 2 . Your choice should be expressed through its label.
Response: 2
